These entries and their values trace back to BindingDB's records for doi:10.1016/s0742-8413(97)00614-2.

Reported Ki values are given for each entry in this list.
- study target: UniProt Q9MZ11
- Sequence (Q9MZ11 whole entry): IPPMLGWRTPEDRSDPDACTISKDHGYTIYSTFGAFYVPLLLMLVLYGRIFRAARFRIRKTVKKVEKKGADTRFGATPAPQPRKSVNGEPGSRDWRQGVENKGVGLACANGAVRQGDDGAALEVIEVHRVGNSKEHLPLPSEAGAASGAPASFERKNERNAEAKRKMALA

- FC(F)(F)c1cccc(N2CCNCC2)c1: 130 nM

Query: Data request, read-out Ki, for O=C1NCN(c2ccccc2)C12CCN(CC1COc3ccccc3O1)CC2 (centres undefined)
Result: 2.4 nM

Query: COc1cccc(OC)c1OCCNCC1Oc2ccccc2OC1c1ccccc1 (centres undefined) , same question.
Result: 3 nM

Query: Then what about the compound CSc1ccc2c(c1)C(N1CCN(C)CC1)Cc1ccccc1S2 (centres undefined) ?
Result: 810 nM
